target or test system: Beta-secretase 1 (Homo sapiens, UniProt P56817)
Sequence (P56817 whole entry): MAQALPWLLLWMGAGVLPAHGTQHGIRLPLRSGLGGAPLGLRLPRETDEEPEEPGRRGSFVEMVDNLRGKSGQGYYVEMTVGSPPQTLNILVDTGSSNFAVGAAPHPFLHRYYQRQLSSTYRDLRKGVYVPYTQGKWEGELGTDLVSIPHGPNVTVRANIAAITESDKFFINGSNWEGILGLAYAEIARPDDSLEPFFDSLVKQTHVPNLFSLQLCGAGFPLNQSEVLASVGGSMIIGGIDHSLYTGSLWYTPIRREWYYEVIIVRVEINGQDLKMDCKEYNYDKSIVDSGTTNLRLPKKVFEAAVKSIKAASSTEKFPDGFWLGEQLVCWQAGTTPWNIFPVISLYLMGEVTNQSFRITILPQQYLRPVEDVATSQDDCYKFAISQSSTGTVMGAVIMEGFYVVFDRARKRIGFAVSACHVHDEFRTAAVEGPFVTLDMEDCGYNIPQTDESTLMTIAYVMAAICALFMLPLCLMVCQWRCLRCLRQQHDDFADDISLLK
test: Inhibition of human recombinant BACE1 using fluorescent peptide substrate after 5 mins
endpoint label: IC50 (µM)

[
  {
    "structure string": "CC(C)CNC(=O)[C@H](C)C[C@H](O)[C@H](CC(C)C)NC(=O)[C@H](Cc1ccc([N+](=O)[O-])cc1)NC(=O)c1ccc(Cl)cc1Cl",
    "readout number": 4.24
  }
]

P. CC(C)CNC(=O)[C@H](C)C[C@H](O)[C@H](CC(C)C)NC(=O)[C@H](Cc1ccccc1)NC(=O)c1ccccc1
Q. CC(C)CNC(=O)[C@H](C)C[C@H](O)[C@H](CC(C)C)NC(=O)[C@H](Cc1ccccc1)NC(=O)c1ccc([N+](=O)[O-])cc1
Of the two listed items, which has the higher IC50? First: P Second: Q // output: label of the selected item Q
(Q: 15.7 µM, P: 6.93 µM)

----------
target or test system: Beta-secretase 1 (Homo sapiens)
test: Inhibition of human recombinant BACE1 using fluorescent peptide substrate at 10 ug/ml after 5 mins
endpoint label: inhibition (%)

[
  {
    "structure string": "CC(C)CNC(=O)[C@H](C)C[C@H](O)[C@H](CC(C)C)NC(=O)[C@H](Cc1ccccc1)NC(=O)c1ccccc1",
    "inhibition, %": 11.2
  },
  {
    "structure string": "CC(C)[C@H](NC(=O)[C@H](Cc1ccccc1)NC(=O)OC(C)(C)C)[C@@H](O)C[C@@H](C)C(=O)NCc1ccccc1",
    "inhibition, %": 23
  },
  {
    "structure string": "CC(C)CNC(=O)[C@H](C)C[C@H](O)[C@@H](NC(=O)[C@H](Cc1ccccc1)NC(=O)OC(C)(C)C)C(C)C",
    "inhibition, %": 25.8
  },
  {
    "structure string": "CC(C)CNC(=O)[C@H](C)C[C@H](O)[C@@H](NC(=O)[C@H](Cc1ccc([N+](=O)[O-])cc1)NC(=O)OC(C)(C)C)C(C)C",
    "inhibition, %": 30.1
  }
]

I. CC(C)CNC(=O)[C@H](C)C[C@H](O)[C@H](CC(C)C)NC(=O)[C@H](Cc1ccc([N+](=O)[O-])cc1)NC(=O)/C=C/c1ccc(C(F)(F)F)cc1
II. CC(C)CNC(=O)[C@H](C)C[C@H](O)[C@H](CC(C)C)NC(=O)[C@H](Cc1ccccc1)NC(=O)c1ccc2c(c1)OCO2
Of the two listed items, which has the higher inhibition? First: I Second: II // output: label of the selected item II

----------
target or test system: Beta-secretase 1 (Homo sapiens, UniProt P56817)
test: Inhibition of human recombinant BACE1 using fluorescent peptide substrate after 5 mins
endpoint label: IC50 (µM)

Record excerpt, results attached:
[
  {
    "structure string": "COc1ccc(C(=O)N[C@@H](Cc2ccc([N+](=O)[O-])cc2)C(=O)N[C@@H](CC(C)C)[C@@H](O)C[C@@H](C)C(=O)NCC(C)C)cc1OC",
    "readout unit": "µM",
    "IC50": 3.81
  },
  {
    "structure string": "CC(C)CNC(=O)[C@H](C)C[C@H](O)[C@H](CC(C)C)NC(=O)[C@H](Cc1ccccc1)NC(=O)c1ccc2c(c1)OCO2",
    "readout unit": "µM",
    "IC50": 8.07
  },
  {
    "structure string": "CC(C)CNC(=O)[C@H](C)C[C@H](O)[C@H](CC(C)C)NC(=O)[C@H](Cc1ccccc1)NC(=O)/C=C/c1ccc(C(F)(F)F)cc1",
    "readout unit": "µM",
    "IC50": 19.5
  },
  {
    "structure string": "CC(C)CNC(=O)[C@H](C)C[C@H](O)[C@H](CC(C)C)NC(=O)[C@H](Cc1ccc([N+](=O)[O-])cc1)NC(=O)/C=C/c1ccc(C(F)(F)F)cc1",
    "readout unit": "µM",
    "IC50": 3.79
  }
]

P. CC(C)CNC(=O)[C@H](C)C[C@H](O)[C@H](CC(C)C)NC(=O)[C@H](Cc1ccccc1)NC(=O)c1cccc2ccccc12
Q. CC(C)CNC(=O)[C@H](C)C[C@H](O)[C@H](CC(C)C)NC(=O)[C@H](Cc1ccccc1)NC(=O)[C@H](CC(C)C)NC(=O)OC(C)(C)C
Of the two listed items, which has the higher IC50? First: P Second: Q // output: label of the selected item P

----------
target or test system: Beta-secretase 1 (Homo sapiens)
test: Inhibition of human recombinant BACE1 using fluorescent peptide substrate at 10 ug/ml after 5 mins
endpoint label: inhibition (%)

[
  {
    "structure string": "CC(C)C[C@H](NC(=O)[C@H](CO)NC(=O)/C=C/c1ccc(C(F)(F)F)cc1)[C@@H](O)C[C@@H](C)C(=O)NCc1ccccc1",
    "inhibition / %": 16.4
  },
  {
    "structure string": "CC(C)CNC(=O)[C@H](C)C[C@H](O)[C@H](CC(C)C)NC(=O)[C@H](Cc1ccccc1)NC(=O)c1cccc(Cl)c1",
    "inhibition / %": 16.9
  },
  {
    "structure string": "CC(C)CNC(=O)[C@H](C)C[C@H](O)[C@H](CC(C)C)NC(=O)[C@H](Cc1ccccc1)NC(=O)[C@H](CC(C)C)NC(=O)OC(C)(C)C",
    "inhibition / %": 54.6
  },
  {
    "structure string": "COc1ccc(C(=O)N[C@@H](Cc2ccccc2)C(=O)N[C@@H](CC(C)C)[C@@H](O)C[C@@H](C)C(=O)NCC(C)C)cc1OC",
    "inhibition / %": 14.7
  }
]

1. COc1ccc(C(=O)N[C@@H](Cc2ccc([N+](=O)[O-])cc2)C(=O)N[C@@H](CC(C)C)[C@@H](O)C[C@@H](C)C(=O)NCC(C)C)cc1OC
2. CC(C)CNC(=O)[C@H](C)C[C@H](O)[C@H](CC(C)C)NC(=O)[C@H](Cc1ccccc1)NC(=O)/C=C/c1ccc(C(F)(F)F)cc1
Hi there, can you help? I need to know whether 1 or 2 has lower measured inhibition. // output: label of the selected item 1

P. CC(C)CNC(=O)[C@H](C)C[C@H](O)[C@H](CC(C)C)NC(=O)[C@H](Cc1ccccc1)NC(=O)c1cc([N+](=O)[O-])cc([N+](=O)[O-])c1
Q. CC(C)CNC(=O)[C@H](C)C[C@H](O)[C@H](CC(C)C)NC(=O)[C@H](Cc1ccccc1)NC(=O)/C=C/c1ccccc1
Of the two listed items, which has the higher inhibition? First: P Second: Q // output: label of the selected item Q
(Q: 22.8%, P: 0.91%)

----------
target or test system: Beta-secretase 1 (Homo sapiens, UniProt P56817)
test: Inhibition of human recombinant BACE1 using fluorescent peptide substrate at 10 ug/ml after 5 mins
endpoint label: inhibition (%)

Record excerpt, results attached:
[
  {
    "structure string": "CC(C)CNC(=O)[C@H](C)C[C@H](O)[C@H](CC(C)C)NC(=O)[C@H](Cc1ccccc1)NC(=O)c1ccc(Cl)cc1Cl",
    "target or test system": "Beta-secretase 1 (Homo sapiens, UniProt P56817)",
    "inhibition (%)": 20.3
  },
  {
    "structure string": "CC(C)CNC(=O)[C@H](C)C[C@H](O)[C@H](CC(C)C)NC(=O)[C@H](Cc1ccccc1)NC(=O)[C@@H](NC(=O)OC(C)(C)C)C(C)C",
    "target or test system": "Beta-secretase 1 (Homo sapiens, UniProt P56817)",
    "inhibition (%)": -2.37
  },
  {
    "structure string": "CC(C)CNC(=O)[C@H](C)C[C@H](O)[C@H](CC(C)C)NC(=O)[C@H](Cc1ccc([N+](=O)[O-])cc1)NC(=O)c1ccc2c(c1)OCO2",
    "target or test system": "Beta-secretase 1 (Homo sapiens, UniProt P56817)",
    "inhibition (%)": 40.3
  }
]

A. CC(C)CNC(=O)[C@H](C)C[C@H](O)[C@H](CC(C)C)NC(=O)[C@H](Cc1ccc([N+](=O)[O-])cc1)NC(=O)c1cccc2ccccc12
B. CC(C)[C@H](NC(=O)[C@H](CO)NC(=O)OC(C)(C)C)[C@@H](O)C[C@@H](C)C(=O)NCc1ccccc1
Of the two listed items, which has the higher inhibition? First: A Second: B // output: label of the selected item B
(B: 50.5%, A: -4.43%)

A. CC(C)CNC(=O)[C@H](C)C[C@H](O)[C@H](CC(C)C)NC(=O)[C@H](Cc1ccc([N+](=O)[O-])cc1)NC(=O)c1ccc(Cl)cc1Cl
B. CC(C)CNC(=O)[C@H](C)C[C@H](O)[C@H](CC(C)C)NC(=O)[C@H](Cc1ccc([N+](=O)[O-])cc1)NC(=O)c1cc([N+](=O)[O-])cc([N+](=O)[O-])c1
Of the two listed items, which has the higher inhibition? First: A Second: B // output: label of the selected item A
(A: 22.2%, B: 7.61%)

I. CC(C)CNC(=O)[C@H](C)C[C@H](O)[C@H](CC(C)C)NC(=O)[C@H](Cc1ccc([N+](=O)[O-])cc1)NC(=O)c1cccc(Cl)c1
II. CC[C@H](C)[C@H](NC(=O)OC(C)(C)C)C(=O)N[C@@H](Cc1ccccc1)C(=O)N[C@@H](C(C)C)[C@@H](O)C[C@@H](C)C(=O)NCc1ccccc1
III. CC(C)CNC(=O)[C@H](C)C[C@H](O)[C@H](CC(C)C)NC(=O)[C@H](Cc1ccc([N+](=O)[O-])cc1)NC(=O)c1ccc([N+](=O)[O-])cc1
IV. CC(C)C[C@H](NC(=O)OC(C)(C)C)C(=O)N[C@@H](Cc1ccccc1)C(=O)N[C@@H](CC(C)C)[C@@H](O)C[C@@H](C)C(=O)NCc1ccccc1
V. CC(C)CNC(=O)[C@H](C)C[C@H](O)[C@H](CC(C)C)NC(=O)[C@H](Cc1ccccc1)NC(=O)c1cccc2ccccc12
# rank_down: sort by inhibition, max first Present the labels in the sequence the task asks for. I, III, IV, V, II
